These data points were gathered from patent US20210261512A1.

test system: NLRP3 (Homo sapiens)
protocol summary: THP-1 cells pyroptosis assay
Assay type: cell-based
Parameters: Seed THP-1 cells (25,000 cells/well) containing 1.0 μg/ml LPS; host or cells: THP-1
assay context: LPS 1.0 μg/ml, nigericin 5 μM, resazurin readout, 10 μM top dose (Example 2: top dose of 30 μM)
measured attribute: IC50

Sample answers from the record:
INPUT: Let me know recorded IC50 for CC(C)N1CCC2(C1)CN(S(=O)(=O)c1nnc(Nc3c4c(cc5c3CCC5)CCC4)[nH]1)C2 [Example 264] , thanks.
OUTPUT: ≤ 0.5 µM

INPUT: Let me know recorded IC50 for O=S(=O)(NCCN1CCOCC1)c1nnc(Nc2c3c(cc4c2CCC4)CCC3)[nH]1 [Example 129] , thanks.
OUTPUT: ≤ 5 µM

INPUT: Let me know recorded IC50 for COCCNS(=O)(=O)c1nnc(Nc2c3c(cc4c2CCC4)CCC3)[nH]1 [Example 83] , thanks.
OUTPUT: ≤ 10 µM

Now turn to the next compound.
INPUT: Let me know recorded IC50 for CC1(O)CCN(S(=O)(=O)c2nnc(Nc3c4c(cc5c3CCC5)CCC4)[nH]2)CC1 [Example 292] , thanks.
OUTPUT: ≤ 5 µM

###

test system: NLRP3 (Homo sapiens, UniProt Q96P20)
Sequence (Q96P20 whole entry): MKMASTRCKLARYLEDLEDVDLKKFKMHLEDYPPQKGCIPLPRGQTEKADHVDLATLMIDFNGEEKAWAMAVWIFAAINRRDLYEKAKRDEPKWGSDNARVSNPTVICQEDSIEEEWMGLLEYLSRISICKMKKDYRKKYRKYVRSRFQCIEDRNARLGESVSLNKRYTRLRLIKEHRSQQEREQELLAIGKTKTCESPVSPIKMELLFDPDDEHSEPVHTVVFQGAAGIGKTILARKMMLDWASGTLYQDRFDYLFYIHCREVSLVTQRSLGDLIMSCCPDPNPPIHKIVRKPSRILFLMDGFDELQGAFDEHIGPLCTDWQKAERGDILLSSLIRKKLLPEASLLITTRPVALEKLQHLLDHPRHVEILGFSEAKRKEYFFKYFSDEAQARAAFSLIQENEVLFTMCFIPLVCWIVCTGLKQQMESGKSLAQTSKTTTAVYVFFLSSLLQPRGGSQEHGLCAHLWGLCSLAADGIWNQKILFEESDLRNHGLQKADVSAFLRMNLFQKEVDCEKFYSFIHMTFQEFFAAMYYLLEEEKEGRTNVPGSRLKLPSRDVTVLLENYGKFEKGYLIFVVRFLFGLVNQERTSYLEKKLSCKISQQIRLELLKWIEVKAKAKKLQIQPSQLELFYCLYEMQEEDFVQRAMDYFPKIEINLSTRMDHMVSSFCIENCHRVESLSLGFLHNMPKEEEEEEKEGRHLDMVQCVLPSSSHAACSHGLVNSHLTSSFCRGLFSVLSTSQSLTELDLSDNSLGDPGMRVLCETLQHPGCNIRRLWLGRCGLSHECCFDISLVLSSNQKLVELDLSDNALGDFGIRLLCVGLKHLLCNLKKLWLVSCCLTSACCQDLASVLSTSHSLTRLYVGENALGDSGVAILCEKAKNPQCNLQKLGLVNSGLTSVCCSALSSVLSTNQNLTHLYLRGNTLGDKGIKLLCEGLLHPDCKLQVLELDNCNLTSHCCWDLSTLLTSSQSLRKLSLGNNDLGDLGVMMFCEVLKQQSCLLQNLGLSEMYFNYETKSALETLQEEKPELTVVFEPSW
protocol summary: Human whole blood IL1β release assay
Type: cell-based
assay context: LPS 1 μg/ml, nigericin 10 μM, IL-1β AlphaLisa, 10 μM top dose (Example 2: top dose of 30 μM), read-out: HWB IC50
pIC50: −log10 of the molar value.
measured attribute: pIC50

Batch lookup, pIC50 per entry.
1. CCN(CC)CCN(C)S(=O)(=O)c1nnc(Nc2c3c(cc4c2CCC4)CCC3)[nH]1 [Example 80]
2. CCN1CCC2(C1)CN(S(=O)(=O)c1nnc(Nc3c4c(cc5c3CCC5)CCC4)[nH]1)C2 [Example 240]
3. CCN1CCC12CCN(S(=O)(=O)c1nnc(Nc3c4c(cc5c3CCC5)CCC4)[nH]1)CC2 [Example 257]
4. CN1CCC12CCN(S(=O)(=O)c1nnc(Nc3c(-c4ccnc(OC(F)F)c4)ccc4c3CCC4)[nH]1)CC2 [Example 200]
5. O=S(=O)(c1nnc(Nc2c3c(cc4c2CCC4)CCC3)[nH]1)N1CC2(CCOCC2)C1 [Example 145]
6. CN1CCC12CCN(S(=O)(=O)c1nnc(Nc3c(-c4ccnc(OC(F)F)c4)ccc4c3CCO4)[nH]1)CC2 [Example 202]

OUTPUT:
["≥ 5.30", "≥ 6.30", "≥ 6.30", "≥ 5.30", "≥ 5.30", "≥ 6.00"]

Batch lookup, pIC50 per entry.
1. CN(C)CCn1ccc(S(=O)(=O)c2nnc(Nc3c4c(cc5c3CCC5)CCC4)[nH]2)n1 [Example 349]
2. O=S(=O)(c1nnc(Nc2c3c(cc4c2CCC4)CCC3)[nH]1)N1CCC(N2CCCC2)CC1 [Example 124]
3. CC(C)c1cc(F)cc(C(C)C)c1Nc1nc(S(=O)(=O)N2CCC(CN(C)C)C2)n[nH]1 (centres unmarked) [Example 241]
4. CCN(CC)C[C@H]1CCN(S(=O)(=O)c2nnc(Nc3c4c(cc5c3CCC5)CCC4)[nH]2)C1 [Example 144]
5. CN(C)C1CCN(S(=O)(=O)c2nnc(Nc3c(-c4ccncc4)ccc4c3CCC4)[nH]2)CC1 [Example 219]

OUTPUT:
1: ≥ 5.30; 2: ≥ 5.30; 3: ≥ 6.00; 4: ≥ 6.30; 5: ≥ 6.00

Batch lookup, pIC50 per entry.
1. [2H]C([2H])([2H])Oc1cc(-c2ccc3c(c2Nc2nnc(S(=O)(=O)N4CC5(CCN(C)C5)C4)[nH]2)CCC3)ccn1 [Example 196]
2. CN1CCCC(CNS(=O)(=O)c2nnc(Nc3c4c(cc5c3CCC5)CCC4)[nH]2)C1 (centres unmarked) [Example 128]
3. CCN(CC)CCCNS(=O)(=O)c1nnc(Nc2c3c(cc4c2CCC4)CCC3)[nH]1 [Example 109]

OUTPUT:
≥ 6.30
≥ 5.00
≥ 6.00
